Tested on: Saccharomyces cerevisiae
Assay: protein stability index of tFT-peptide fusion (C-terminal peptide) (PSI (0-1 scale)); higher = more stable (slower turnover)
Details: genetic background: das1 deletion; temperature: 30 C
RECORDED METRIC: protein stability index
When you answer, write just the number.

Worked cases, answers included:
[
  {
    "SEQUENCE STRING": "CHSICLVILEFI",
    "protein stability index": 0.25
  },
  {
    "SEQUENCE STRING": "FGFFDIKLPVVA",
    "protein stability index": 0.38
  }
]

**Query** Quick one: protein stability index of "LLMPLLLHSLVW" ?
**Result** 0.308

**Query** Quick one: protein stability index of "FLSVGFSCSFVC" ?
**Result** 0.599

**Query** Quick one: protein stability index of "VLVLLVCVAALV" ?
**Result** 0.163

###

System: Saccharomyces cerevisiae
Experiment: protein stability index of tFT-peptide fusion (C-terminal peptide) (PSI (0-1 scale)); higher = more stable (slower turnover)
Conditions: genetic background: das1 deletion; temperature: 30 C
Quick reference: protein stability index of the listed items.

**Query** Quick one: protein stability index of SIQWIWRYSFVY [YIR020C C-terminal 12 aa] ?
**Result** 0.464

**Query** Quick one: protein stability index of LEQGFKVVSAKE [YCS4 C-terminal 12 aa] ?
**Result** 0.697

**Query** Quick one: protein stability index of KQLGSSHNYTVN [SKG6 C-terminal 12 aa] ?
**Result** 0.695

**Query** Quick one: protein stability index of GAMSEGKTGQLN [YLR036C C-terminal 12 aa] ?
**Result** 0.699

**Query** Quick one: protein stability index of ESHQDKTEEDIH [OKP1 C-terminal 12 aa] ?
**Result** 0.691

**Query** Quick one: protein stability index of KELVKRRIVGEV [AEP3 C-terminal 12 aa] ?
**Result** 0.682

###

Tested on: Saccharomyces cerevisiae
Experiment: protein stability index of tFT-peptide fusion (C-terminal peptide) (PSI (0-1 scale)); higher = more stable (slower turnover)
Details: genetic background: wild type; temperature: 30 C
Returns one of 1 (yes) or 0 (no); 1 (yes) when protein stability index is >= 0.7.

Worked examples follow.
[
  {
    "SEQUENCE STRING": "LSLSVNLPLFPT",
    "ASSIGNED CATEGORY": "0 (no)"
  },
  {
    "SEQUENCE STRING": "GRTDKKKFISGL",
    "ASSIGNED CATEGORY": "0 (no)"
  },
  {
    "SEQUENCE STRING": "AEAFFRIVRTVR",
    "ASSIGNED CATEGORY": "1 (yes)"
  }
]

**Query** Decide: protein stability index of "TGPSLDRALLDL" >= 0.7?
**Result** 0 (no)

**Query** Decide: protein stability index of "GVGGGGRLMCGV" >= 0.7?
**Result** 0 (no)

###

Tested on: Saccharomyces cerevisiae
Assay: protein stability index of tFT-peptide fusion (C-terminal peptide) (PSI (0-1 scale)); higher = more stable (slower turnover)
Details: genetic background: wild type; temperature: 30 C
Quick reference: protein stability index of the listed items.
When you answer, write just the number.

[
  {
    "SEQUENCE STRING": "LWFGAWWLGAVG",
    "protein stability index": 0.457
  },
  {
    "SEQUENCE STRING": "KKKKTKYIKRKK",
    "protein stability index": 0.701
  }
]

**Query** Quick one: protein stability index of "LLGLVGGVVGLA" ?
**Result** 0.624

**Query** Quick one: protein stability index of "VYRIAEENRRWV" ?
**Result** 0.738

**Query** Quick one: protein stability index of "ITVWVLSDGIGV" ?
**Result** 0.562

**Query** Quick one: protein stability index of "VALHRIPVTVSR" ?
**Result** 0.578

**Query** Quick one: protein stability index of "RILFGALYSSCK" ?
**Result** 0.678
